B1: library; numbered along this chain (parent)
chain: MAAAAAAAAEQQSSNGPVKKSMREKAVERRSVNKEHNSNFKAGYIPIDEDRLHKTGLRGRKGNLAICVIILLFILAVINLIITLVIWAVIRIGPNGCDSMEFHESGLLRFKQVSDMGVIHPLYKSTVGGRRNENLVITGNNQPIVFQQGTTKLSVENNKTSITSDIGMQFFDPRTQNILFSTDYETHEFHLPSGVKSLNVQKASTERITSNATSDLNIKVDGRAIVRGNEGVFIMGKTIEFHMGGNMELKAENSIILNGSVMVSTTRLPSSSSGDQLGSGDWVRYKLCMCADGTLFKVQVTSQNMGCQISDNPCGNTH

variants of: B1; experiment: SGCB cell-surface expression functional score (HA stain, bin4 vs bin1, normalised to synonymous) (log10 ratio); higher = more cell-surface SGCB (functional)
Label Criterion met when SGCB cell-surface expression functional score (log10) is at or above -0.1; anything below gets Criterion not met.

{"columns": ["mutant-designation", "label"],
 "data": [
  ["S279F", "Criterion not met"],
  ["F233R", "Criterion met"],
  ["K41M", "Criterion met"],
  ["V113F", "Criterion not met"],
  ["G93W", "Criterion not met"],
  ["F40C", "Criterion met"],
  ["H53G", "Criterion met"],
  ["M289Y", "Criterion met"],
  ["G139H", "Criterion not met"],
  ["N229Q", "Criterion met"],
  ["L122V", "Criterion not met"],
  ["A224N", "Criterion not met"],
  ["L249T", "Criterion met"],
  ["M22D", "Criterion not met"],
  ["A251G", "Criterion met"],
  ["R29F", "Criterion not met"],
  ["D172V", "Criterion met"],
  ["A4M", "Criterion met"],
  ["I86D", "Criterion not met"],
  ["V232G", "Criterion not met"],
  ["R174E", "Criterion not met"],
  ["S14A", "Criterion met"]
]}
